Tested on: Rattus norvegicus
Test Conditions: acute; oral; mortality
Outcome Measure: LD50

Some solved cases for reference:
1) CCC=CC=CCCCCCCOC(C)=O (stereo in doubt) [(7Z,9E)-Dodeca-7,9-dienyl acetate]
> 5000 mg/kg
2) CC/C=C\CCCCCCCCCCOC(C)=O [(Z)-Tetradec-11-enyl acetate]
> 5000 mg/kg
3) CCCC/C=C/CC/C=C\CCCCCCOC(C)=O [Hexadeca-7,11-dien-1-yl acetate (Z,E)-]
> 5000 mg/kg
4) CCCC/C=C\CCCCCCCCOC(C)=O [(Z)-9-Tetradecenyl acetate]
> 5000 mg/kg
5) CC/C=C\CCCCCCCCOC(C)=O [(Z)-Dodec-9-enyl acetate]
> 5000 mg/kg

Q. Please report the recorded LD50 for C/C=C/C=C/CCCCCCCO [(8E,10E)-8,10-Dodecadien-1-ol] .
A. > 5000 mg/kg

Q. Data request, read-out LD50, for CCC/C=C/CCCCCCCOC(C)=O [(E)-Dodec-8-enyl acetate]
A. > 5000 mg/kg

Q. Please report the recorded LD50 for CCCC/C=C\CCCCCCCCCC=O [(Z)-11-Hexadecenal] .
A. > 5000 mg/kg
